- Tested on: PmTbr T-box DNA-binding domain (GST fusion);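 further: 200 nM protein in PBS on universal arrays averaged over duplicate arrays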
- Sequence: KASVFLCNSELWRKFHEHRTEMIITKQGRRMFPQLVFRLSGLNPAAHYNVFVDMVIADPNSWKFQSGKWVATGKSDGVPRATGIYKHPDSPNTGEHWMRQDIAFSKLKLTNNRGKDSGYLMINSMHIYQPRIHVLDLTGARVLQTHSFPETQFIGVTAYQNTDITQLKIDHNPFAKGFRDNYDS
- Assay Details: PBM E-score of 8-mer (E-score (dimensionless, -0.5 to 0.5)); Tbr is Tbrain of the sea star Patiria miniata (Pm) or the sea urchin Strongylocentrotus purpuratus (Sp); higher = stronger binding preference
- Condition: the construct has about 5 more residues each side
The full ranking holds about 33,000 sequences; the median of “E-score (dimensionless, -0.5 to 0.5)” is about -0.049, and the highest 2% start at about 0.37. Only a selection was taken, and the highest values are over-represented in it overall.
PBM E-score of 8-mer values by entry

{"Sequence Text": "ATTCTGAG", "PBM E-score of 8-mer": -0.131}
{"Sequence Text": "ATCACGCC", "PBM E-score of 8-mer": 0.372}

Inquiry: Fill in the blank: the reported PBM E-score of 8-mer of CACCTCGG is ____.
Reply text: 0.426

Inquiry: Fill in the blank: the reported PBM E-score of 8-mer of TGGGTGAA is ____.
Reply text: -0.158

Inquiry: Fill in the blank: the reported PBM E-score of 8-mer of CTCACGCA is ____.
Reply text: 0.306

Inquiry: Fill in the blank: the reported PBM E-score of 8-mer of AGTGTGAA is ____.
Reply text: 0.488

Inquiry: Fill in the blank: the reported PBM E-score of 8-mer of CCCACGCC is ____.
Reply text: 0.0824
